Quick record of IC50 values for PDE1A (Homo sapiens, UniProt P54750).
value.type: IC50 (nM)

Recorded results for 5 compounds are shown here.
| compound | value.type | units | measured.result |
| --- | --- | --- | --- |
| CCOc1ncccc1-c1cc(NCc2cnn(C)n2)c2c(C(C)C)nn(C)c2n1 | IC50 | nM | 110 |
| CCOc1ncccc1-c1cc(NCc2cncc(OC)c2)c2c(C(C)C)nn(C)c2n1 | IC50 | nM | 16 |
| CCCOc1ncccc1-c1cc(NCc2cnn(C)c2)c2c(C(C)C)nc(C)n2n1 | IC50 | nM | 3.3 |
| CCOc1ncccc1-c1cc(NCc2cnc(C)o2)c2c(C(C)C)nn(C)c2n1 | IC50 | nM | 53 |
| CCOc1ncccc1-c1cc(NCc2cc(C)[nH]n2)c2c(C(C)C)nc(C)n2n1 | IC50 | nM | 4.1 |

P. CCOc1ncccc1-c1cc(NCc2noc(C)n2)c2c(C(C)C)nc(C)n2n1
Q. CCOc1ncccc1-c1cc(NCc2cnn(C)n2)c2c(C(C)C)nc(C)n2n1
Prompt: // select label with min value of measured IC50 from [ P , Q ] Returns: label corresponding to the selected item.
Response: P

1. CCOc1ncccc1-c1cc(NCc2nccc(C)n2)c2c(C(C)C)nn(C)c2n1
2. CCOc1ncccc1-c1cc(NCc2cccnc2OC)c2c(C(C)C)nc(C)n2n1
3. CCOc1ncccc1-c1cc(NCc2cc[nH]n2)c2c(C(C)C)nc(C)n2n1
4. Cc1ncsc1-c1cc(NCc2ncn(C)n2)c2c(C(C)C)nn(C)c2n1
Prompt: List items by IC50 in falling order. Output spec: labels arranged per the requested ranking.
Response: 1, 2, 4, 3

a. CCOc1ncccc1-c1cc(NCc2cn(C)nn2)c2c(C(C)C)nn(C)c2n1
b. CCOc1ncccc1-c1cc(NCc2cnn(C)c2)c2c(C(C)CC)nc(C)n2n1 (single isomer, unassigned; (-))
c. Cc1sccc1-c1cc(NCc2ncn(C)n2)c2c(C(C)C)nn(C)c2n1
Prompt: Your job: order these 3 records by IC50, ascending. Reply with the labels, ordered as the question asks.
Response: a, c, b
(a: 18 nM, c: 29 nM, b: 44 nM)

----------
target.system: PDE1B (Homo sapiens)
Sequence (Q01064 whole entry): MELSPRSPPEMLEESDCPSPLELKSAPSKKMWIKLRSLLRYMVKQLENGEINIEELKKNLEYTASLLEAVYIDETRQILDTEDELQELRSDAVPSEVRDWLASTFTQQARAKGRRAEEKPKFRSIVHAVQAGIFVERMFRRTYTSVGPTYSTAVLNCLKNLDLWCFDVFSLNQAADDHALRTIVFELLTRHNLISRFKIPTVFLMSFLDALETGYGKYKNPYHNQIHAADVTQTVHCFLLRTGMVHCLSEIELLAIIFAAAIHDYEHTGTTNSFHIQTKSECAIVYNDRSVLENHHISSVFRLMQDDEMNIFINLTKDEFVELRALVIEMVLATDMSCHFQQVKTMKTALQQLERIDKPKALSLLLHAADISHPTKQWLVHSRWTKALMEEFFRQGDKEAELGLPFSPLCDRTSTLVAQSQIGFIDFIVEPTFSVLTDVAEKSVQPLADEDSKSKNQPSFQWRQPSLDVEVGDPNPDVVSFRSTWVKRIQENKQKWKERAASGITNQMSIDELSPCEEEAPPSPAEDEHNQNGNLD
test.summary: PDE1 inhibition assay (PDE1B), SPA with tritium labelled cAMP
Format: biochemical
experimental.conditions: 15 nM tritium labelled cAMP, 1 hr at room temperature, SPA beads; read-out: PDE1B, IC50
pIC50: −log10 of the molar value.
value.type: pIC50

| molecule | measured.result |
| --- | --- |
| COc1nccnc1-c1cc(NCc2ncn(C)n2)c2c(C(C)C)nn(C)c2n1 [Example 57] | 7.66 |

1. Cc1csc(-c2cc(NCc3ncn(C)n3)c3c(C(C)C)nn(C)c3n2)n1 [Example 60]
2. CCCOc1ncccc1-c1cc(NCc2cn(C)cn2)c2c(C(C)C)nn(C)c2n1 [Example 34]
Prompt: # min-compare on pIC50 between 1 and 2 Answer by quoting the chosen item's label.
Response: 1

I. CCOc1ncccc1-c1cc(NCc2nnc(C)o2)c2c(C(C)C)nc(C)n2n1 [Example 45]
II. COc1ncccc1-c1cc(NCc2ncn(C)n2)c2c(C(C)C)nn(C)c2n1 [Example 55]
Prompt: For the two items I and II , which reports the higher pIC50 value? Your answer should be the label of the entry you select.
Response: I
(I: 8.11, II: 7.52)

a. CCOc1ncccc1-c1cc(NCc2cc[nH]n2)c2c(C(C)CC)nc(C)n2n1 (single isomer, unassigned; (+)) [Example 51]
b. CCOc1ncccc1-c1cc(NCc2cccnc2C(F)(F)F)c2c(C(C)C)nn(C)c2n1 [Example 38]
c. CCOc1ncccc1-c1cc(NCc2cc[nH]n2)c2c(C(C)C)nc(C)n2n1 [Example 10]
Prompt: Give the ascending ranking of the items by reported pIC50. // respond by listing labels in the order requested
Response: b, a, c
(b: 7.48, a: 8.37, c: 8.80)
